Hey, just so you know, these numbers are from paper PMC12207590.

# experimental.system: MATE1 (Homo sapiens, UniProt Q96FL8)
# Sequence (Q96FL8 whole entry): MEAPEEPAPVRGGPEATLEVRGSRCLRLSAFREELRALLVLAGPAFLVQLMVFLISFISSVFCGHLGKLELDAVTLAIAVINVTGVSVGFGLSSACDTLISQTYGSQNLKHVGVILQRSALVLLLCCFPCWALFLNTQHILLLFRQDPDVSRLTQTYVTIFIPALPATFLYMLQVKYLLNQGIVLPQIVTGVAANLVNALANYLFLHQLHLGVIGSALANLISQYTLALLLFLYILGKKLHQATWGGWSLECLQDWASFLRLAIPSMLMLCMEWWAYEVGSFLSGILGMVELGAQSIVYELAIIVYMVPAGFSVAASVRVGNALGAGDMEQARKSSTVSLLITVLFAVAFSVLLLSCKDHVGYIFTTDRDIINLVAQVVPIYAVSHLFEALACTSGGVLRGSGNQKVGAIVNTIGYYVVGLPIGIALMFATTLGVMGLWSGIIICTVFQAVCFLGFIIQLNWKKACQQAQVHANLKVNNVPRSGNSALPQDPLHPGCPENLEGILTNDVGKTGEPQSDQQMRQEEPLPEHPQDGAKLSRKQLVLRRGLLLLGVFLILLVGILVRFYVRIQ
# test.details: Uptake ratio in MATE1-overexpressing HEK293 cells vs empty vector (2.5 μM, 1 min, HPLC-MS/MS)
# Format: cell-based
# settings: uptake ratio MATE1-overexpressing vs empty-vector HEK293 cells, 2.5 μM, 1 min; mean
result.type: MATE1

compound: COc1cc(Cc2cnc(N)nc2N)cc(OC)c1OC [trimethoprim]
experimental.system: MATE1 (Homo sapiens, UniProt Q96FL8)
quantitative.readout: 1.52

compound: O=C1CCC(N2C(=O)c3ccccc3C2=O)C(=O)N1 (stereo not shown) [Thalidomide]
experimental.system: MATE1 (Homo sapiens, UniProt Q96FL8)
quantitative.readout: 0.85

compound: O=C(c1ccc(OCCN2CCCCC2)cc1)c1c(-c2ccc(O)cc2)sc2cc(O)ccc12 [Raloxifene]
experimental.system: MATE1 (Homo sapiens, UniProt Q96FL8)
quantitative.readout: 1.12

compound: Cn1nnc2c(C(N)=O)ncn2c1=O [Temozolomide]
experimental.system: MATE1 (Homo sapiens, UniProt Q96FL8)
quantitative.readout: 1.03

compound: CN1[C@@H]2CC[C@H]1C[C@@H](OC(=O)c1c[nH]c3ccccc13)C2 [Tropisetron]
experimental.system: MATE1 (Homo sapiens, UniProt Q96FL8)
quantitative.readout: 1.22

compound: CCCCNc1ccc(C(=O)OCCN(C)C)cc1 [Tetracaine]
experimental.system: MATE1 (Homo sapiens, UniProt Q96FL8)
quantitative.readout: 1.12

compound: COC(=O)[C@H]1[C@H]2C[C@@H]3c4[nH]c5cc(OC)ccc5c4CCN3C[C@H]2C[C@@H](OC(=O)c2cc(OC)c(OC)c(OC)c2)[C@@H]1OC [Reserpine]
experimental.system: MATE1 (Homo sapiens, UniProt Q96FL8)
quantitative.readout: 1.61

compound: CC(C)NCC(O)COc1cccc2ccccc12 [Propranolol (S), Propranolol]
experimental.system: MATE1 (Homo sapiens, UniProt Q96FL8)
quantitative.readout: 1.13

compound: C[C@@H]1CCN(C(=O)CC#N)C[C@@H]1N(C)c1ncnc2[nH]ccc12 [Tofacitinib]
experimental.system: MATE1 (Homo sapiens, UniProt Q96FL8)
quantitative.readout: 1.36

compound: CC(C)(C)NCC(O)COc1nsnc1N1CCOCC1 (stereo in doubt) [Timolol (R)]
experimental.system: MATE1 (Homo sapiens, UniProt Q96FL8)
quantitative.readout: 0.94

compound: CN(CCN1CCC(OC(=O)Nc2ccccc2-c2ccccc2)CC1)C(=O)c1ccc(CN2CCC(C(N)=O)CC2)cc1 [Revefenacin]
experimental.system: MATE1 (Homo sapiens, UniProt Q96FL8)
quantitative.readout: 1.39

compound: CCCOC(C(=O)OC1CCN(C)CC1)(c1ccccc1)c1ccccc1 [Propiverine]
experimental.system: MATE1 (Homo sapiens, UniProt Q96FL8)
quantitative.readout: 1.2

compound: C#CCN[C@@H]1CCc2ccccc21 [Rasagiline (S), Rasagiline]
experimental.system: MATE1 (Homo sapiens, UniProt Q96FL8)
quantitative.readout: 1.46

compound: CCN1CCC[C@H]1CNC(=O)c1c(OC)ccc(Br)c1OC [Remoxipride]
experimental.system: MATE1 (Homo sapiens, UniProt Q96FL8)
quantitative.readout: 1.19

compound: CC(C)(C)NCC(O)c1ccc(O)c(CO)c1 [Salbutamol (R), Salbutamol]
experimental.system: MATE1 (Homo sapiens, UniProt Q96FL8)
quantitative.readout: 6.98

compound: CC(C)(C)NCC(O)c1ccccc1Cl (stereo not shown) [Tulobuterol]
experimental.system: MATE1 (Homo sapiens, UniProt Q96FL8)
quantitative.readout: 1.31

compound: CN(C)CCc1c[nH]c2ccc(C[C@H]3COC(=O)N3)cc12 [Zolmitriptan (S), Zolmitriptan]
experimental.system: MATE1 (Homo sapiens, UniProt Q96FL8)
quantitative.readout: 13.34

compound: CNCc1ccc(-c2[nH]c3cc(F)cc4c3c2CCNC4=O)cc1 [Rucaparib]
experimental.system: MATE1 (Homo sapiens, UniProt Q96FL8)
quantitative.readout: 3.71

compound: OCCOCCN1CCN(C2=Nc3ccccc3Sc3ccccc32)CC1 [Quetiapine]
experimental.system: MATE1 (Homo sapiens, UniProt Q96FL8)
quantitative.readout: 1.1

compound: N[C@@H](CC(=O)N1CCn2c(nnc2C(F)(F)F)C1)Cc1cc(F)c(F)cc1F [Sitagliptin]
experimental.system: MATE1 (Homo sapiens, UniProt Q96FL8)
quantitative.readout: 4.17

compound: CC(C)[N+](C)(CCOC(=O)C1c2ccccc2Oc2ccccc21)C(C)C [Propantheline]
experimental.system: MATE1 (Homo sapiens, UniProt Q96FL8)
quantitative.readout: 10.16

compound: NCCCCN [Putrescine]
experimental.system: MATE1 (Homo sapiens, UniProt Q96FL8)
quantitative.readout: 0.36

compound: NC(=O)c1cnccn1 [Pyrazinamide]
experimental.system: MATE1 (Homo sapiens, UniProt Q96FL8)
quantitative.readout: 0.97

compound: Cn1c(=O)c2c(ncn2CCCNCC(O)c2cc(O)cc(O)c2)n(C)c1=O (stereo not shown) [Reproterol]
experimental.system: MATE1 (Homo sapiens, UniProt Q96FL8)
quantitative.readout: 5.18

compound: NCCc1c[nH]c2ccc(O)cc12 [Serotonin]
experimental.system: MATE1 (Homo sapiens, UniProt Q96FL8)
quantitative.readout: 12.11

compound: O=c1ncccn1[C@@H]1O[C@H](CO)[C@@H](O)[C@H]1O [Zebularine]
experimental.system: MATE1 (Homo sapiens, UniProt Q96FL8)
quantitative.readout: 1.12

compound: c1cnc2cc3c(cc2n1)[C@@H]1CNC[C@H]3C1 [Varenicline]
experimental.system: MATE1 (Homo sapiens, UniProt Q96FL8)
quantitative.readout: 1.2

compound: CC(C)(C)c1ccc(C(O)CCCN2CCC(C(O)(c3ccccc3)c3ccccc3)CC2)cc1 (stereo not shown) [Terfenadine]
experimental.system: MATE1 (Homo sapiens, UniProt Q96FL8)
quantitative.readout: 1.07

compound: CN(C)CCc1c[nH]c2ccc(C[C@H]3COC(=O)N3)cc12 [Zolmitriptan]
experimental.system: MATE1 (Homo sapiens, UniProt Q96FL8)
quantitative.readout: 11.83

compound: CC[C@@H]1CN(C(=O)NCC(F)(F)F)C[C@@H]1c1cnc2cnc3[nH]ccc3n12 [Upadacitinib]
experimental.system: MATE1 (Homo sapiens, UniProt Q96FL8)
quantitative.readout: 1.51

compound: CCCCC[C@H](O)/C=C/[C@@H]1[C@@H](C/C=C\CCCC(=O)O)[C@@H](O)C[C@H]1O [Prostaglandin F2alpha]
experimental.system: MATE1 (Homo sapiens, UniProt Q96FL8)
quantitative.readout: 1.41

compound: COC(=O)[C@@H]1[C@H]2C[C@H]3c4[nH]c5ccccc5c4CCN3C[C@@H]2CC[C@@H]1O [Yohimbin]
experimental.system: MATE1 (Homo sapiens, UniProt Q96FL8)
quantitative.readout: 1.11

compound: CC(C)NCC(O)COc1cccc2ccccc12 [Propranolol (R), Propranolol]
experimental.system: MATE1 (Homo sapiens, UniProt Q96FL8)
quantitative.readout: 1.16

compound: Cc1ncc(CO)c(C=O)c1O [Pyridoxal]
experimental.system: MATE1 (Homo sapiens, UniProt Q96FL8)
quantitative.readout: 0.97

compound: CC(C)(C)NCC(O)c1ccc(O)c(CO)c1 (stereo not shown) [Salbutamol]
experimental.system: MATE1 (Homo sapiens, UniProt Q96FL8)
quantitative.readout: 7.94

compound: COc1ccccc1N1CCN(CCCNc2cc(=O)n(C)c(=O)n2C)CC1 [Urapidil]
experimental.system: MATE1 (Homo sapiens, UniProt Q96FL8)
quantitative.readout: 1.19

compound: O=C(O[C@H]1CN2CCC1CC2)N1CCc2ccccc2[C@@H]1c1ccccc1 [Solifenacin]
experimental.system: MATE1 (Homo sapiens, UniProt Q96FL8)
quantitative.readout: 1.28
